substrate: CC(=O)CC(=O)SCCNC(=O)CCNC(=O)[C@H](O)C(C)(C)COP(=O)(O)OP(=O)(O)OC[C@H]1O[C@@H](n2cnc3c(N)ncnc32)[C@H](O)[C@@H]1OP(=O)(O)O; assay: purified protein; assay type: biochemical, Caenorhabditis elegans; conditions: 100 µM NADH (saturating), 0.1 M citrate/phosphate pH 7.0, 0.1 mM dithiothreitol, 298 K, 23 nM protein, AACoA 30-70 µM, 25.0 °C
valueKind: Vmax

Name the recorded Vmax of the item 3-hydroxyacyl-CoA dehydrogenase from C. elegans, Y209A mutant (enzyme, Caenorhabditis elegans, 3-hydroxyacyl-CoA dehydrogenase (cHAD), Caenorhabditis elegans, WormBase WBGene00010035, GenBank CAA80153.1; as m1 with Y209A; Made by overlapping PCR from the wild type plasmid, ligated into pEXS-CG (BamHI, EcoRI); also called cHAD Y209A; source: E. coli BL21 (DE3), purified (same procedure as the wild type); not shown: GST, C-terminal, cleaved) MFTAKCAMQNIRNVAIVGSGQMGSGIAQVTASSGFNVMLADVNKKALDRAMKAISQSVTHLSKKQKGTDKEKSDFVTLTMSRIKTCNNVSTAVADADLIIEAAIENIDLKRGIFAQIEQSCKKDSILTTNTSSFLLEDVAKGLQDKTRFGGLHFFNPVPVMKLLEVIRSDDTSDETYATLIKFGTAVGKTTVACKDSPGFIVNRLLIPAFFEAARMYERGDASMTDIDEAMKLGAGHPMGPFELADYIGLDTVKFVMDGWAAKYPEVQLFEASPLVDKLVAEGKLGRKTGDGFYSYKK in your answer.
30 µmol/min/mg
